These measurements were taken from patent US20240279318A1.

// reported kon for each item listed
- studySystem: T1, AFP158/HLA-A*02:01 complex (human)
- T1 construct: flowed as analyte in SPR
- protocolDescription: SPR, crude scFv captured, pMHC analyte;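 also: complex injected at several concentrations over the chip, association phase then running buffer for dissociation, KD derived from on- and off-rates computed from both curves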
quantityMeasured: kon

{"binder": "AS170036 VL1VH1-57K98F108A (scFv, also called 67-AS170036 VL1VH1-57K98F108A) scFv: QSALTQPRSVSGSPGQSVTISCAGTSSDVGSENYVSWYQQHPGKAPKLMIYQVNKRASGVPDRFSGSKSGNTASLTISGLQAEDEADYYCASYRSSDFNIVFGGGTKLTVLGGGGSGGGGSGGGGSEVQLVESGGGLVQPGGSLRLSCAASGFTFSSYAMSWVRQAPGKGLEWVSTINSGTGKPYYADSVKGRFTISRDNSKNTLYLQMNSLRAEDTAVYYCAKNFFDGSWFLAPPAMDYWGQGTLVTVSSHHHHHH", "result": "230000 M⁻¹ s⁻¹"}
{"binder": "AS170036 VL1VH1-57M98Q108A (scFv, also called 82-AS170036 VL1VH1-57M98Q108A) scFv: QSALTQPRSVSGSPGQSVTISCAGTSSDVGSENYVSWYQQHPGKAPKLMIYQVNKRASGVPDRFSGSKSGNTASLTISGLQAEDEADYYCASYRSSDQNIVFGGGTKLTVLGGGGSGGGGSGGGGSEVQLVESGGGLVQPGGSLRLSCAASGFTFSSYAMSWVRQAPGKGLEWVSTINSGTGMPYYADSVKGRFTISRDNSKNTLYLQMNSLRAEDTAVYYCAKNFFDGSWFLAPPAMDYWGQGTLVTVSSHHHHHH", "result": "220000 M⁻¹ s⁻¹"}
{"binder": "AS170036 VL1VH1-57H98I108D (scFv, also called 62-AS170036 VL1VH1-57H98I108D) scFv: QSALTQPRSVSGSPGQSVTISCAGTSSDVGSENYVSWYQQHPGKAPKLMIYQVNKRASGVPDRFSGSKSGNTASLTISGLQAEDEADYYCASYRSSDINIVFGGGTKLTVLGGGGSGGGGSGGGGSEVQLVESGGGLVQPGGSLRLSCAASGFTFSSYAMSWVRQAPGKGLEWVSTINSGTGHPYYADSVKGRFTISRDNSKNTLYLQMNSLRAEDTAVYYCAKNFFDGSWFLDPPAMDYWGQGTLVTVSSHHHHHH", "result": "250000 M⁻¹ s⁻¹"}
